# Test system: HT-29 (Colon)
# Experiment Notes: MTT antiproliferative assay, 72 h
# Format: cell-based
# Conditions Used: read-out: IC50 values HT-29 (Colon), 72 h exposure, mean ± SDM, n = 3
Measurement Type: pIC50
One number for each entry, as −log10 of the molar value.

Prompt: Retrieve pIC50 measured for Oc1ccccc1C=NNC(=S)Nc1ccccc1 and print it.
Completion: 5.02

As a next step, examine the molecule that follows.
Prompt: Supply recorded pIC50 for CC(=O)N(O)CCCCCNC(=O)CCC(=O)N(O)CCCCCNC(=O)CCC(=O)N(O)CCCCCN here.
Completion: 5.64

###

Exercise: for every item that follows, state its recorded IC50.
# Tested on: MCF-7 (Breast)
# Experiment Notes: MTT antiproliferative assay, 72 h
# Format: cell-based
# Conditions Used: read-out: IC50 values MCF-7 (Breast), 72 h exposure, mean ± SDM, n = 3
Answers are plain numbers, in µM.

Prompt: Identify the reported IC50 for the following entry. CC(=O)N(O)CCCCCNC(=O)CCC(=O)N(O)CCCCCNC(=O)CCC(=O)N(O)CCCCCN
Completion: 22.5

Now for the molecule whose IC50 we want.
Prompt: Output IC50 of Oc1ccccc1C=NNC(=S)Nc1ccccc1
Completion: 1.74
